Below, each entry is listed alongside its reported ε (molar absorptivity).
Assay: absorption spectrum of methanol solutions
Type: physicochemical
Conditions: at λmax

Consider the reported ε (molar absorptivity) for these compounds:
# COMPOUND, ε (molar absorptivity)
data = [
    ("CCN1C(=O)C(=C2Sc3ccc(OC)cc3N2C)SC1=Nc1sc2ccccc2[n+]1CC [Compound I-8]", "4.50 × 10^4"),
    ("CCN1C(=O)C(=C2Sc3ccccc3N2C)SC1=Nc1cccc[n+]1CC [Compound I-6]", "3.52 × 10^4"),
    ("CCn1c(=Cc2sc3ccccc3[n+]2CC)sc(=CC=C2Sc3ccccc3N2C)c1=O [Compound S-2, reference compound]", "9.44 × 10^4"),
    ("CCN1C(=O)C(=C2Sc3ccc(OC)cc3N2C)SC1=Nc1sc2ccccc2[n+]1CC [Compound I-5]", "4.45 × 10^4"),
    ("CCN1C(C)=CSC1=CC=C1SC(=Nc2sc3cc(OC)ccc3[n+]2CC)N(CC)C1=O", "8.31 × 10^4"),
]

The compound listed as CCN1C(=O)C(=CC=C2C=Cc3ccccc3N2CC)SC1=Nc1ccc2ccccc2[n+]1C shows ε (molar absorptivity) equal to 5.80 × 10^4

The compound listed as CCN1C(=O)C(=C2Sc3ccccc3N2C)SC1=Nc1sc2cc(Cl)ccc2[n+]1CC shows ε (molar absorptivity) equal to 4.17 × 10^4

The compound listed as CCN1C(=O)C(=C2Sc3ccccc3N2C)SC1=Nc1scc[n+]1C shows ε (molar absorptivity) equal to 3.55 × 10^4

The compound listed as CCN1C(=O)C(=C2Sc3ccccc3N2C)SC1=Nc1sc2ccccc2[n+]1CC shows ε (molar absorptivity) equal to 4.87 × 10^4

The compound listed as CCN1CCSC1=CC=C1SC(=Nc2sc3ccccc3[n+]2CC)N(CC)C1=O shows ε (molar absorptivity) equal to 5.78 × 10^4

The compound listed as CCN1C(=O)C(=C2Sc3ccccc3N2C)SC1=Nc1sc2cc(OC)ccc2[n+]1CC shows ε (molar absorptivity) equal to 4.74 × 10^4

The compound listed as CCn1c(=Cc2sc3ccccc3[n+]2CC)sc(=C2Sc3ccccc3N2C)c1=O [Compound S-1, reference compound] shows ε (molar absorptivity) equal to 7.49 × 10^4

The compound listed as CC[n+]1c(N=C2SC(=CC=C3Sc4ccccc4N3C)C(=O)N2C)sc2ccccc21 shows ε (molar absorptivity) equal to 7.58 × 10^4

The compound listed as CCN1C(=O)C(=C2Sc3ccccc3N2C)SC1=Nc1cccc[n+]1CC [Compound I-7] shows ε (molar absorptivity) equal to 3.37 × 10^4
